Attribute: aptazyme ON/OFF ratio
B1: Pistol ribozyme (parent)
chain: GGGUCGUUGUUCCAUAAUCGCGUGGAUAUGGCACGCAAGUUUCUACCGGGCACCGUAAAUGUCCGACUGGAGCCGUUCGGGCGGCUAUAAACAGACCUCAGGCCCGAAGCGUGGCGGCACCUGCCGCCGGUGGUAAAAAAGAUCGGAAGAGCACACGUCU

# Variants of: B1
# MEASUREMENT DESCRIPTION: aptazyme ON/OFF ratio, guanine; higher = stronger switching; co-transcriptional cleavage with and without guanine
Respond with the number and no other words.

Reference set, count: 2
U8C G9U U10G C12A | 1.66
U7A U8G G9C U10A C12G | 1.43

# aptazyme ON/OFF ratio lookup, item U7A U8C G9A U10C U11A
1.24

What would you report for G9A U11G ?
2.2

What would you report for G9C U10A ?
1.98

What would you report for U7G U8A G9C U10C U11A C13A ?
1.1

What would you report for U7A G9A C12U ?
2.04

What would you report for U7A U11G C12U ?
1.22

meta.source: the RNAGym collection of RNA variant scans (doi:10.1021/acssynbio.7b00057)
